Data credit: patent US20250074911A1

- study.system: BTK T474I (Homo sapiens (Human), UniProt Q06187, T474I)
- Sequence (Q06187 whole entry T474I): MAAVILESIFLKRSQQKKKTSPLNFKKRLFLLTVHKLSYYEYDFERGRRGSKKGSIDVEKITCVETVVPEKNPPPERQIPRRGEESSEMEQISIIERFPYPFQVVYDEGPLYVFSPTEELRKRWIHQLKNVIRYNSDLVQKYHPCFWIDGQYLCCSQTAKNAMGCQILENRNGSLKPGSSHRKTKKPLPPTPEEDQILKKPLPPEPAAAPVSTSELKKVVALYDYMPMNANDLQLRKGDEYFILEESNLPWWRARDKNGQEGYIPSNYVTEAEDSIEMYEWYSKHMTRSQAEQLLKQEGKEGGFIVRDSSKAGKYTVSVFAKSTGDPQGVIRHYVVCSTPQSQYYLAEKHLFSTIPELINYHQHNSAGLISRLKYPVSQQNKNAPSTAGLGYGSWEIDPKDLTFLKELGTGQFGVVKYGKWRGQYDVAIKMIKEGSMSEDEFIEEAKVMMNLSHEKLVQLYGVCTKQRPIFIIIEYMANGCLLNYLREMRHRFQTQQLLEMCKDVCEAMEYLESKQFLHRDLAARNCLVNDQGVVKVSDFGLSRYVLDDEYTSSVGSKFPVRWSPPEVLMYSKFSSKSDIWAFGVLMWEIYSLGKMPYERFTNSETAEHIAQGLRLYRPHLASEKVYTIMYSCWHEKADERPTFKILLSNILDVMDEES
- method.summary: Binding kinetics measurements (Surface Plasmon Resonance) on BTK T474I
- condition.summary: target residence time, SPR
Reported Tau (h) BTK T474I (Act) values follow for various compounds
Response body: numeric value in h, unit text excluded.

Look over these answered cases.
>  <smiles>
Nc1ncc2c3c1c(-c1ccc(C(=O)Nc4cc(C(F)(F)F)ccn4)cc1)nn3[C@@H]1CCC[C@H](C1)NC(=O)CCCC/C=C/2

>  <Tau (h) BTK T474I (Act)>
2.01

$$$$
>  <smiles>
COc1cc(-c2nn3c4c(cnc(N)c24)/C=C/CCOCCC(=O)N[C@@H]2CCC[C@@H]3C2)ccc1C(=O)Nc1cc(C(F)(F)F)ccn1

>  <Tau (h) BTK T474I (Act)>
0.73

$$$$
>  <smiles>
Nc1ncc2n3c(nc(-c4ccc(C(=O)Nc5cc(C(F)(F)F)ccn5)cc4)c13)[C@@H]1CC[C@H](C1)NC(=O)CCOC/C=C/2

>  <Tau (h) BTK T474I (Act)>
1.44

$$$$
>  <smiles>
Cc1ccnc(NC(=O)c2ccc(-c3nc4n5c(cnc(N)c35)/C=C/CCOCCC(=O)N[C@@H]3CC[C@@H]4C3)cc2)c1

>  <Tau (h) BTK T474I (Act)>
1.18

$$$$
>  <smiles>
C[C@@H]1C[C@@H](C)n2nc(-c3ccc(C(=O)Nc4cc(C(F)(F)F)ccn4)cc3)c3c(N)ncc(c32)/C=C/COCCC(=O)N1

>  <Tau (h) BTK T474I (Act)>
1.94

$$$$
>  <smiles>
Nc1ncc2c3c1c(-c1ccc(C(=O)Nc4cc(C(F)(F)F)ccn4)cc1)nn3[C@@H]1CCCN(C1)C(=O)CCCCCC/C=C/2

>  <Tau (h) BTK T474I (Act)>
1.80

$$$$

Switching to the query record.
Provide the documented Tau (h) BTK T474I (Act) with BTK T474I (Homo sapiens (Human), UniProt Q06187, T474I) as the system for COc1ccc(F)cc1C(=O)NCc1ccc(-c2nn3c4c(cnc(N)c24)/C=C/CCCCCC(=O)N[C@@H]2CCC[C@@H]3C2)cc1
2.13
